- TESTED_SYSTEM: T1, recombinant human mature Factor D (human, UniProt P00746 26-253)
- T1 construct: also called mature CFD; hCFD
- ASSAY_OVERVIEW: BLI (Octet ForteBio), 20 nM human IgG4 antibody on anti-human sensors, antigen 111 nM
REPORTED_METRIC: Kd

I am curious: what Kd value has been reported for 10G1, purified recombinant, human IgG4 (antibody, V domains shown, Mouse variable regions on human IgG4 (S228P) and human kappa constant regions) VH: QVTLKESGPGILQSSQTLSLTCSFSGVSLSSSGMGVSWIRQPSGKGLEWLAHIYWDDEKHYNPSLKSRLTISKGASRNQVFLKIISVDTADTATYYCALRYYGYNSIMHYWGQGASVTVSS VL: DVLMTQTPLSLPVSLGDQASISCRSSESIVHSNGNTYLEWYLQKPGQSPKLLIYKVYNRFSGVPDRFSGSGSGTDFTLKISRVEAEDLGVYYCFQGSHVPPTFGGGTKLEIKR ?
0.731 nM
